- tested.target: HIV-1 Env of isolate MGRM-G-001 (subtype G), on pseudovirus (HIV-1)
- test.description: cell-based or functional assay
Response field label: string, one of Satisfied (IC50 (µg/mL), neutralization of pseudovirus strictly below 0.03 µg/mL) or Not satisfied.

Study these solved cases before continuing.
Check if IC50 (µg/mL), neutralization of pseudovirus falls below 0.03 µg/mL for PGT-127 (antibody, V domains shown) VH: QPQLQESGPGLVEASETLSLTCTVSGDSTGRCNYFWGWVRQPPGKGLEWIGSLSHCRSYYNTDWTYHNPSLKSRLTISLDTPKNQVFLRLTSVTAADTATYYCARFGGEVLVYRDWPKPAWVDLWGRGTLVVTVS VL: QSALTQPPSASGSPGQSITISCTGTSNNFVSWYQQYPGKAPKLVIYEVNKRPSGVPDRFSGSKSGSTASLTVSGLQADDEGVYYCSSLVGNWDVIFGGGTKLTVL .
Not satisfied

Check if IC50 (µg/mL), neutralization of pseudovirus falls below 0.03 µg/mL for PGT-125 (antibody, V domains shown) VH: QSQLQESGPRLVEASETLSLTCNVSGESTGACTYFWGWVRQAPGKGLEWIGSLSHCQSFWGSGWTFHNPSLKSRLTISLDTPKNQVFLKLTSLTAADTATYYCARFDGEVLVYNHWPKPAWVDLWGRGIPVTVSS VL: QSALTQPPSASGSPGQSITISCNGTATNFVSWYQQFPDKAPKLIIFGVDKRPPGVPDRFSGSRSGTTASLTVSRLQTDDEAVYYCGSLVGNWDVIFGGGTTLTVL .
Not satisfied

Check if IC50 (µg/mL), neutralization of pseudovirus falls below 0.03 µg/mL for PGT-128 (antibody, V domains shown) VH: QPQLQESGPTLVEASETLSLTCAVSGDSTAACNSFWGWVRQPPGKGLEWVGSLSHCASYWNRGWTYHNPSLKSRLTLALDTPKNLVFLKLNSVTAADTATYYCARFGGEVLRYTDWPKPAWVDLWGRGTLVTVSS VL: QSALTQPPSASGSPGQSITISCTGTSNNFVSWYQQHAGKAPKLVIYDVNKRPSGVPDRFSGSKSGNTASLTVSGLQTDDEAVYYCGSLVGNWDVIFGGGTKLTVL .
Satisfied

Check if IC50 (µg/mL), neutralization of pseudovirus falls below 0.03 µg/mL for PGT-131 (antibody, V domains shown) VH: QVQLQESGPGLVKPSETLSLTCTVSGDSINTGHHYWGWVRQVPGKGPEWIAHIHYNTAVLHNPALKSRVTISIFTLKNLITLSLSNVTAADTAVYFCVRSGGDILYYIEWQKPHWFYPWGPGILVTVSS VL: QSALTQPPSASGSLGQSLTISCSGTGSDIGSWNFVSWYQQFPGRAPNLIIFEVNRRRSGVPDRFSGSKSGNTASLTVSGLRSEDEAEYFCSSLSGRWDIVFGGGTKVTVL .
Not satisfied

Check if IC50 (µg/mL), neutralization of pseudovirus falls below 0.03 µg/mL for PGT-130 (antibody, V domains shown) VH: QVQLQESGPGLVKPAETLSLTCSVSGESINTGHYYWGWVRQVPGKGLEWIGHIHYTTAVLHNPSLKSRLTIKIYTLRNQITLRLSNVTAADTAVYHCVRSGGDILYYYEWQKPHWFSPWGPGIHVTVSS VL: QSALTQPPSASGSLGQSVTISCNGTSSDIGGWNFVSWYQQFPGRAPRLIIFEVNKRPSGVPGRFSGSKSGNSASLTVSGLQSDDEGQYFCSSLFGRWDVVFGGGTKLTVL .
Satisfied

Check if IC50 (µg/mL), neutralization of pseudovirus falls below 0.03 µg/mL for PGT-123 (antibody, V domains shown) VH: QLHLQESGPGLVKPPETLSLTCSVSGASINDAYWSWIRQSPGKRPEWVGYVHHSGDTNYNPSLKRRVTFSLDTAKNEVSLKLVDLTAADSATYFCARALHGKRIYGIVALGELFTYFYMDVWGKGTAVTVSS VL: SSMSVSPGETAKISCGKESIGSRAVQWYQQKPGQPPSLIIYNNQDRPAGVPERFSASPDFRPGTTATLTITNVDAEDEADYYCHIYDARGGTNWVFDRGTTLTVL .
Satisfied

***
Check if IC50 (µg/mL), neutralization of pseudovirus falls below 0.03 µg/mL for PGT-136 (antibody, V domains shown) VH: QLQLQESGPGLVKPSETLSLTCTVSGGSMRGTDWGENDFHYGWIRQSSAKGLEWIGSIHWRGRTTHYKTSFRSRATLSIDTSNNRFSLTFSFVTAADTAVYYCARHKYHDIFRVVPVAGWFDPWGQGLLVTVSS VL: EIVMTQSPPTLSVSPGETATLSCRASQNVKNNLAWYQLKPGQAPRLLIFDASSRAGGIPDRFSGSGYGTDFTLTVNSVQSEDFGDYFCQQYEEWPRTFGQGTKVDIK .
Not satisfied

Check if IC50 (µg/mL), neutralization of pseudovirus falls below 0.03 µg/mL for PGT-135 (antibody, V domains shown) VH: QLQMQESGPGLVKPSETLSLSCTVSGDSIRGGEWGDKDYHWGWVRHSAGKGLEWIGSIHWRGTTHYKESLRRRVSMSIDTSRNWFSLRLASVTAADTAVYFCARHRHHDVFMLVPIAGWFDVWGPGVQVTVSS VL: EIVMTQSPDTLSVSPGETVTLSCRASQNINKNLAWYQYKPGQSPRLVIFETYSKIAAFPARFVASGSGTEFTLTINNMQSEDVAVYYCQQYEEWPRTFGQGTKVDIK .
Not satisfied

Check if IC50 (µg/mL), neutralization of pseudovirus falls below 0.03 µg/mL for PGT-126 (antibody, V domains shown) VH: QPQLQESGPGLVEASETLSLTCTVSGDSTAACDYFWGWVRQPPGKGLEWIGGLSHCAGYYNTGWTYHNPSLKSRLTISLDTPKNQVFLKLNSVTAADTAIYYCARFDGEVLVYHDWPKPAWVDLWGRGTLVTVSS VL: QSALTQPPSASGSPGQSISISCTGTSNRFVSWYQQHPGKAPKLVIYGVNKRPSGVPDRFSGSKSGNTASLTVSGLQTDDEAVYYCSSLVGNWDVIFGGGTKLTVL .
Not satisfied

Check if IC50 (µg/mL), neutralization of pseudovirus falls below 0.03 µg/mL for PGT-137 (antibody, V domains shown) VH: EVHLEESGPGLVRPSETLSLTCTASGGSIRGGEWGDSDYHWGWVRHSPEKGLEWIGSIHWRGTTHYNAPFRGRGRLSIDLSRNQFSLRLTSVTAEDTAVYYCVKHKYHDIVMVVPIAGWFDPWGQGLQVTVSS VL: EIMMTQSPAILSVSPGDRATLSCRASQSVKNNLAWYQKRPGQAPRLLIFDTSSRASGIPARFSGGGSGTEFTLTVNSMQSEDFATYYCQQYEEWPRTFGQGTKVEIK .
Not satisfied
